In this section, each of the molecules is paired with its reported pIC50.
Molecular target: TYK2 (Homo sapiens, UniProt P29597)
Sequence (P29597 whole entry): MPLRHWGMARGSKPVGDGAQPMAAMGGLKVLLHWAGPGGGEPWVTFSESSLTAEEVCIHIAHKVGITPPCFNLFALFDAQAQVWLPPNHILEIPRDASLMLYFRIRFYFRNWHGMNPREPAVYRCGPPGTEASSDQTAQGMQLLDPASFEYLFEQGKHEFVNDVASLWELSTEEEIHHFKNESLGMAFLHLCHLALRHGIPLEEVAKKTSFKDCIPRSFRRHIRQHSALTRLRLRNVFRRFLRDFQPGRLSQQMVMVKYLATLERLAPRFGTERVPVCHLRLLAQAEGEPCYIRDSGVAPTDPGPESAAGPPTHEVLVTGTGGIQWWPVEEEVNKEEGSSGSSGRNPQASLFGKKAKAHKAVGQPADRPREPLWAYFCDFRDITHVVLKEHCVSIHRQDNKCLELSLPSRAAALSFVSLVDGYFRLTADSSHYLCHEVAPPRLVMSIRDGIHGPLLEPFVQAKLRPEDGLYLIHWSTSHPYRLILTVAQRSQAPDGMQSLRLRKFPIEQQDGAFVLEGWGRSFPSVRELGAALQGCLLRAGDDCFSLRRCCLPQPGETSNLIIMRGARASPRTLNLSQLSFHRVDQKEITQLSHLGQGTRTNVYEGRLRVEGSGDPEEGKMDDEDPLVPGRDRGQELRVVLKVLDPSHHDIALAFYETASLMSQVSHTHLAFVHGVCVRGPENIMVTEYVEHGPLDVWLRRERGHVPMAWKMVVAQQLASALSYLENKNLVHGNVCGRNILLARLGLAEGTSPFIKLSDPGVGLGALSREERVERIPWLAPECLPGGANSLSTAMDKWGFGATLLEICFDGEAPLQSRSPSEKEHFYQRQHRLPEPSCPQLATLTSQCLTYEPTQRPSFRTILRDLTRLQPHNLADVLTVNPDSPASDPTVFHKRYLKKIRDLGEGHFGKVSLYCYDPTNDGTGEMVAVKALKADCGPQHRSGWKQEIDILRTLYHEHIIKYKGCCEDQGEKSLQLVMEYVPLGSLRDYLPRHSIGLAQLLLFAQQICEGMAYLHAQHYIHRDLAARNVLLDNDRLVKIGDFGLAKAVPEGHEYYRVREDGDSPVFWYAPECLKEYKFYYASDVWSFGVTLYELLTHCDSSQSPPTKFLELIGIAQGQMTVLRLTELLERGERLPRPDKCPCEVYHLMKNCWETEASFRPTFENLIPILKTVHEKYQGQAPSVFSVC
Assay: TYK2 kinase inhibition (Table A1)
Type: biochemical
Details: Table D1
Where a name gives a salt, the structure may show the parent alone.
Just so you know, pIC50 here is -log10 of the concentration in molar units; reply with that number alone.

## Task Could you tell me which pIC50 is on file for O=C(C[C@@H]1CCCN(C(=O)Nc2ccccc2)C1)Nc1ccc2cc1CCc1cncc(c1)Nc1ncc(Cl)c(n1)N2 [Example D198, bis(trifluoroacetate)] ?
## Result 7.57

## Task Try the molecule O=C(NCc1ccccc1)Nc1cc2cc(c1)OCCSc1cccc(c1)Nc1nc(ncc1Cl)N2 [Example D66, trifluoroacetate]
## Result 8.47

## Task Queued: O=C(Cc1ccccc1)Nc1cc2cc(c1)OCCSc1cccc(c1)Nc1nc(ncc1Cl)N2 [Example D64, trifluoroacetate]
## Result 8.43

## Task Do the same for Clc1cnc2nc1Nc1cccc(c1)OCCc1cc(cc(-c3ccc(N4CCNCC4)nc3)c1)N2 [Example D33, tris(trifluoroacetate)] please
## Result 8.40
